- protocol: in vitro
- Type: cell-based
readout-label: EC50 (µg/mL)

[a] N=C(N)NCCCc1cccc(-c2cncc(-c3ccc(-c4cncc(-c5cccc(CCCNC(=N)N)c5)c4)s3)c2)c1 [Compound 233]
[b] NCCCOc1cccc(-n2cc(-c3ccc4ccc(-c5cn(-c6cccc(OCCCN)c6)nn5)cc4c3)nn2)c1 [Compound 152]
[c] NCCSc1ccc(NC(=O)c2cc(C(=O)Nc3ccc(SCCN)cc3)ncn2)cc1 [Compound 192]
Could you put the items above in increasing order of their EC50? Labels, ranked as asked. b, a, c
(b: 0.8 µg/mL, a: 2 µg/mL, c: 32 µg/mL)

These data points were gathered from patent US20150094294A1.
